Tested on: A549/ATCC NSCLC
Procedure details: NCI-60 one-dose screen, 48 h (100 = growth as untreated, 0 = no growth, -100 = all killed)
Measurement setup: 10 µM unless noted
This is part of a sample that, as a whole, favours compounds with a hit. Of some 83,000 tested, about 20% had one in any assay.
Readout: growth (%)
Field format: number, assumed %, no unit text.

Given the entry `COc1ccc(C/C(C)=C(\c2ccc(Cl)cc2)c2ccc(OCCN3CCCCCC3)cc2)cc1` , report its measured growth.
87.9

Given the entry `O=c1ccc2cc3ccccc3cc2[nH]1` , report its measured growth.
102

Given the entry `COc1cc2cc(COc3nccc(-c4ccc(Cl)cc4)n3)c(=O)[nH]c2cc1OC` , report its measured growth.
67.5

Given the entry O=C1CC(c2nc3ccccc3[nH]2)CN1C1CCCCC1 (stereo unspecified) , report its measured growth.
104

Given the entry `c1ccc2c(Nc3cccc4ccccc34)cccc2c1` , report its measured growth.
48.1

Given the entry CCN(CC)CCCC(C)NCCCNc1cccc2cccnc12 (stereo unspecified) , report its measured growth.
106

Given the entry `COc1cccc(/C=C\C(=O)c2ccccc2)c1` , report its measured growth.
92.4

Given the entry `COc1ccc2nc(NC(=O)c3cccnc3Nc3cc(OC)c(OC)c(OC)c3)sc2c1` , report its measured growth.
-32.2

Given the entry O=C(O)C(O)C(O)C(=O)O.[NH-]C1CCCCC1[NH-].[Pt+2] (stereo unspecified) , report its measured growth.
111

Given the entry CCN(CC)CCCC(C)N/C(=C1\C(=O)NC(=O)\C1=C(/NC(C)CCCN(CC)CC)c1cccc(OC)c1)c1cccc(OC)c1 (stereo unspecified) , report its measured growth.
-52.9

Given the entry `O=C1c2cc3c(cc2-c2c1c1cc(Cl)c(Cl)cc1c(=O)n2C[C@H](O)CO)OCO3` , report its measured growth.
-47.3

Given the entry `COc1cccc(-c2nc3sccn3c2-c2ccnc(NCCCNS(=O)(=O)c3ccccc3)c2)c1` , report its measured growth.
29

Given the entry `CC(C)(C)c1nn(-c2ccccc2)c2c1CC1(CN2Cc2ccc3c(c2)OCO3)C(=O)c2ccccc2C1=O` , report its measured growth.
79.4

Given the entry `CCOC(=O)CC(=O)c1c(C)cc(C)cc1C` , report its measured growth.
107

Given the entry `CC(C)(C)n1cc(-c2ccnc(NCCCNS(=O)(=O)c3cccc4ccccc34)c2)c(-c2cccc(O)c2)n1` , report its measured growth.
29.2

Given the entry `COc1cnc2c(c1)C(=O)c1c-2n(CCCN2CCNCC2)c(=O)c2cc([N+](=O)[O-])ccc12` , report its measured growth.
-87.2

Given the entry `COc1cc(-c2cnc3nonc3n2)c(OC)c2c1OCO2` , report its measured growth.
94.1

Given the entry `COc1cc(OC)c(/C=C/c2cc[n+](C)c3ccccc23)c(OC)c1` , report its measured growth.
8.24

Given the entry `CC[C@]12C=CCN3CC[C@@]4(c5ccc(OC)cc5N(C)[C@H]4[C@@](O)(C(=O)OC)[C@@H]1OC(=O)CCC(=O)N[C@@H](Cc1c[nH]c4ccccc14)C(=O)OC)[C@@H]32` , report its measured growth.
86.8

Given the entry `CCN(CC)c1ccc(/C=C/C2=[N+](C)c3ccccc3C2(C)C)cc1` , report its measured growth.
14.4

Given the entry `Cc1cc(Nc2nc(-c3cccnc3)nc3ccccc23)n[nH]1` , report its measured growth.
19

Given the entry `O=C(Cn1cc(CN2C(=O)c3ccccc3S2(=O)=O)nn1)Nc1ccc([N+](=O)[O-])cc1Cl` , report its measured growth.
106

Given the entry `CCOC(=O)c1c2ncccc2n2c(=O)n(-c3ccc(Cl)cc3)nnc12` , report its measured growth.
81.8

Given the entry `N#Cc1ccc(NC(=O)Nc2ccc(Cc3ccc(NC(=O)Nc4ccc(C#N)cc4)cc3)cc2)cc1` , report its measured growth.
41.3

Given the entry O=[N+]([O-])c1cccc(C2CC(c3ccccc3)=Nc3ccccc3S2)c1 (stereo unspecified) , report its measured growth.
88.6

Given the entry CCCCCCCCCCCCN1CCCC(C)C1 (stereo unspecified) , report its measured growth.
91.4

Given the entry `COc1ncc(-c2ccc3ncnc(Nc4cccc(Cl)c4)c3c2)cc1NS(C)(=O)=O` , report its measured growth.
15.8

Given the entry `O=C(O)c1cccc2c1-c1ccccc1C2=O` , report its measured growth.
101

Given the entry Cc1ccc(C2CC3c4ccccc4C2C2CCCCN32)cc1 (stereo unspecified) , report its measured growth.
89.9

Given the entry `COc1ccc(-c2cnoc2-c2cc(OC)c3c(c2)OCCO3)cc1` , report its measured growth.
18.6

Given the entry `CCOC(=O)c1ccc2c(c1)nc(/C=C/c1ccc(Cl)cc1)n2-c1cc(C(C)(C)C)[nH]n1` , report its measured growth.
32.8

Given the entry `CCc1ccc(C(c2ccc(CC)cc2)C(Cl)(Cl)CCl)cc1` , report its measured growth.
149

Given the entry `Nc1ccc2c(c1)C(=O)NC2=O` , report its measured growth.
105

Given the entry `CCCCCN(CCCCC)CCC[C@@H](C)[C@H]1CC[C@H]2[C@@H]3[C@H](OCCCN)C[C@@H]4C[C@H](OCCCN)CC[C@]4(C)[C@H]3C[C@H](OCCCN)[C@]12C` , report its measured growth.
55.2

Given the entry `N#Cc1c2c(nc3n[nH]c(N)c13)CCCC2` , report its measured growth.
108

Given the entry `CCN(CC)CCC(=O)c1ccc(OC)c2ccccc12` , report its measured growth.
100

Given the entry `CCN(CC)c1ccc(CNc2cc(C)nc3ccc(OC)cc23)cc1` , report its measured growth.
70.2

Given the entry `CCOC(=O)/C=C/C(=O)[C@H](CC(C)C)NC(=O)[C@H](Cc1ccccc1)NC(=O)OCc1ccccc1` , report its measured growth.
73.3

Given the entry `CC(=O)N1CC(Nc2ccc(OC(F)(F)F)cc2)=CC1=O` , report its measured growth.
38.9

Given the entry `CCOc1ccc(Nc2nc(-c3c(C)nc4ncccn34)cs2)cc1` , report its measured growth.
22.4

Given the entry `COc1ccc(Cl)cc1Nc1nc(C(F)(F)F)ccc1C(=O)N/N=C/c1cccnc1` , report its measured growth.
58.7
